Documented ε Molar Absorptivity at 365 nm across a set of molecules
- Experiment Notes: Electronic absorption and emission properties
- Assay type: physicochemical
- Setup Conditions: 365 nm
Structures can show the parent of a compound that is named as a salt.

Some molecules with recorded ε Molar Absorptivity at 365 nm:
# Molecule, Measured Value
measured = [
    ("CC(=O)OCc1cc(=O)oc2cc(O)c(Br)cc12", "14,800 M^−1cm^−1"),
    ("CC(=O)OCc1cc(=O)oc2cc(O)c(Cl)cc12", "15,900 M^−1cm^−1"),
    ("COc1cc(COC(=O)CCC(N)C(=O)O)c([N+](=O)[O-])cc1OC (stereo not shown) [Compound 2, reference compound]", "7,300 M^−1cm^−1"),
]

-- ask Entry O=C(O)CC[C@H](NC(=O)OCc1cc(=O)oc2cc(O)c(Br)cc12)C(=O)O needs its ε Molar Absorptivity at 365 nm filled in; supply it.
-- reply 17,300 M^−1cm^−1

-- ask # return recorded ε Molar Absorptivity at 365 nm for input N[C@@H](CCC(=O)OCc1cc(=O)oc2cc(O)c(Br)cc12)C(=O)O
-- reply 19,200 M^−1cm^−1

-- ask Give reported ε Molar Absorptivity at 365 nm value for CC(=O)OCc1c(Br)c(=O)oc2c(Br)c(O)c(Br)cc12
-- reply 9,700 M^−1cm^−1

-- ask Respond only with ε Molar Absorptivity at 365 nm recorded for NC(CCC(=O)OC(C(=O)O)c1ccccc1[N+](=O)[O-])C(=O)O (stereo not shown) [Compound 1, trifluoroacetate salt, reference compound]
-- reply 180 M⁻¹ cm⁻¹

Numbers sourced from patent US6472541B2.
